Exercise: for every item that follows, state its recorded EC50.
System: MOLT-4
Test: EC50 is the cytotoxic concentration of compound required to reduce Molt4/C8 (human T-lymphocyte) cell viability by 50%.
Assay type: functional, cell-based
One number for each entry, in µg/mL.

CC(=O)O/N=C1/C[C@H](n2cc(C)c(=O)[nH]c2=O)O[C@@H]1CO.CC(=O)O/N=C1\C[C@H](n2cc(C)c(=O)[nH]c2=O)O[C@@H]1CO (racemic) = 14

For every record below, what is its EC50?
1. Cc1cn(C2C/C(=N\O)C(CO)O2)c(=O)[nH]c1=O (stereo not given)
2. Cc1cn(C2C/C(=[N+](/[O-])O)C(CO)O2)c(=O)[nH]c1=O (stereo not given)
3. Cc1cn(C2CC([N+](=O)[O-])C(CO)O2)c(=O)[nH]c1=O (stereo not given)

1: 1.2; 2: 17; 3: 70
